All values here come from ChEMBL document CHEMBL5154752.

tgt: Melanocortin receptor 4 (Homo sapiens)
Sequence (P32245 whole entry): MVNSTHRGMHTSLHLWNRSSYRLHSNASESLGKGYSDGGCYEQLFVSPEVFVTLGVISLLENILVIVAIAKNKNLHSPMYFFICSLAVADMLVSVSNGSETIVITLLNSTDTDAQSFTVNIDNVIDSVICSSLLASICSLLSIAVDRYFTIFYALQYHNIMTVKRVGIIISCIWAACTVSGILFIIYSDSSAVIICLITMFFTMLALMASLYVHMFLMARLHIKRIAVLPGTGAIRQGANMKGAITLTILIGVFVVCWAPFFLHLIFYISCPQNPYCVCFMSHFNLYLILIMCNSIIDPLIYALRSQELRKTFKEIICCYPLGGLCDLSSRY
assay_overview: Displacement of [125I]NDP-alpha-MSH from human MC4R expressed in HEK293 cells by competitive binding assay
Consider the following molecules; for each one, report its IC50.
Numbers only, in nM.

* CCCC[C@H](NC(C)=O)C(=O)N[C@@H]1C(=O)N[C@@H](Cc2c[nH]cn2)C(=O)N[C@H](Cc2ccccc2)C(=O)N[C@@H](CCCNC(=N)N)C(=O)N[C@@H](Cc2c[nH]c3ccccc23)C(=O)N[C@H](C(N)=O)CSCc2cccc(c2)CSC1(C)C | 628

Turning now to a further molecule:
Prompt: Indicate its recorded IC50; the molecule in question is CCCC[C@H](NC(C)=O)C(=O)N[C@@H]1C(=O)N[C@@H](Cc2c[nH]cn2)C(=O)N[C@H](Cc2ccccc2)C(=O)N[C@@H](CCCNC(=N)N)C(=O)N[C@@H](Cc2c[nH]c3ccccc23)C(=O)N[C@H](C(N)=O)CSCc2ccccc2CSC1(C)C
Completion: 619

----------
tgt: Melanocortin receptor 5 (Homo sapiens)
Sequence (P33032 whole entry): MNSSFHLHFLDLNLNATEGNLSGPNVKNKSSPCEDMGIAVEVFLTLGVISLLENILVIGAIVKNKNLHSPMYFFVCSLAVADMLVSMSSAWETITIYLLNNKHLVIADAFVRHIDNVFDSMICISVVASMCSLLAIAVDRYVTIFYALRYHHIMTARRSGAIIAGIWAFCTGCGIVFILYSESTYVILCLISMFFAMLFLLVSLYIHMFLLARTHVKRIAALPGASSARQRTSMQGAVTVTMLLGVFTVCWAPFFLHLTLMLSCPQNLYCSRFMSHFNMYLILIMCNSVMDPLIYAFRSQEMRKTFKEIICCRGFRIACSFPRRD
assay_overview: Displacement of [125I]NDP-alpha-MSH from human MC5R expressed in HEK293 cells by competitive binding assay
Type: cell-based
metric: pIC50
One number for each entry, as −log10 of the molar value.

Examples with their reported pIC50 follow.
* CCCC[C@H](NC(C)=O)C(=O)N[C@H]1CSCc2ccccc2CSC[C@@H](C(N)=O)NC(=O)[C@H](Cc2c[nH]c3ccccc23)NC(=O)[C@H](CCCNC(=N)N)NC(=O)[C@@H](Cc2ccccc2)NC(=O)[C@H](Cc2c[nH]cn2)NC1=O | 7.11
* CCCC[C@H](NC(C)=O)C(=O)N[C@H]1CSCc2cccc(c2)CSC(C)(C)[C@@H](C(N)=O)NC(=O)[C@H](Cc2c[nH]c3ccccc23)NC(=O)[C@H](CCCNC(=N)N)NC(=O)[C@@H](Cc2ccccc2)NC(=O)[C@H](Cc2c[nH]cn2)NC1=O | 7.52

Here's the next entry for you.
Prompt: Give recorded pIC50. CCCC[C@H](NC(C)=O)C(=O)N[C@@H]1C(=O)N[C@@H](Cc2c[nH]cn2)C(=O)N[C@H](Cc2ccccc2)C(=O)N[C@@H](CCCNC(=N)N)C(=O)N[C@@H](Cc2c[nH]c3ccccc23)C(=O)N[C@H](C(N)=O)CSCc2ccccc2CSC1(C)C
Completion: 6.80
